Some compounds, each annotated with its measured pEC50.
tested on: ATF4 luciferase reporter; assay: ATF4-Luc assay in HEK293T cells carrying the ATF4 luciferase reporter (in vitro model of VWMD); assay type: cell-based, human; conditions: Homo sapiens, HEK-293T, 1 μg/mL tunicamycin, 7 hours, luminescence (One Glo)
pEC50: −log10 of the molar value.
observationType: pEC50

• Cc1csc(CNC(=O)C23CC(NC(=O)COc4ccc(Cl)c(F)c4)(C2)C3)n1 [Compound 176] = < 5.70
• O=C(COc1ccc(Cl)c(Cl)c1)NC12CC(C(=O)NCc3ccc(OC(F)F)cn3)(C1)C2 [Compound 148] = > 6.60
• O=C(COc1ccc(Cl)c(F)c1)NC12CC(C(=O)NCc3ccc(OC(F)F)cc3)(C1)C2 [Compound 169] = 6.00 to 6.30
• CC(C)c1cc(CNC(=O)C23CCC(NC(=O)COc4ccc(Cl)c(F)c4)(CC2)CC3O)on1 (centres unmarked) [Compound 109] = 6.00 to 6.30
• Cc1cc(CNC(=O)C23CC(NC(=O)COc4ccc(Cl)c(F)c4)(C2)C3)n(C)n1 [Compound 151] = < 5.70
• CN(Cc1ccccc1)C(=O)C12CC(NC(=O)COc3ccc(Cl)c(F)c3)(C1)C2 [Compound 175] = < 5.70
• Cc1cccc(CNC(=O)C23CC(NC(=O)COc4ccc(Cl)c(F)c4)(C2)C3)c1 [Compound 166] = < 5.70
• NS(=O)(=O)c1ccc(CCNC(=O)C23CC(NC(=O)COc4ccc(Cl)c(F)c4)(C2)C3)cc1 [Compound 199] = < 5.70

====

system: ATF4 luciferase reporter; assay: ATF4-Luc assay in HEK293T cells carrying the ATF4 luciferase reporter (in vitro model of VWMD); format: cell-based, human; details: Homo sapiens, HEK-293T, 1 μg/mL tunicamycin, 7 hours, luminescence (One Glo)
Some compounds, each annotated with its measured EC50.
observationType: EC50

- Cn1cnc(CNC(=O)C23CC(NC(=O)COc4ccc(Cl)c(F)c4)(C2)C3)c1 [Compound 196]: > 2000 nM
- Cc1cccc(OCCNC(=O)C23CC(NC(=O)COc4ccc(Cl)cc4)(C2)C3)c1 [Compound 101]: 1000 to 2000 nM
- CN(Cc1ccc(C(F)(F)F)cc1)C(=O)C12CCC(NC(=O)COc3ccc(Cl)c(F)c3)(CC1)CC2O (centres unmarked) [Compound 145]: < 250 nM
- O=C(COc1ccc(F)cc1)NC12CCC(C(=O)NCc3ccc(C(F)(F)F)cc3)(CC1)C(O)C2 (centres unmarked) [Compound 123]: < 250 nM
- Cc1ccccc1CNC(=O)C12CC(NC(=O)COc3ccc(Cl)c(F)c3)(C1)C2 [Compound 197]: 500 to 1000 nM
- C[C@@H](NC(=O)C12CC(NC(=O)COc3ccc(Cl)c(F)c3)(C1)C2)c1ccc(Cl)cc1 [Compound 198]: > 2000 nM
- O=C(COc1ccc(Cl)c(F)c1)NC12CC(C(=O)NCc3ccc(C(F)(F)F)cc3)(C1)C2 [Compound 156]: < 250 nM
- O=C(COc1ccc(Cl)c(F)c1)NC12CC(C(=O)NCc3ccccc3OCC(F)F)(C1)C2 [Compound 203]: > 2000 nM

====

system: ATF4 luciferase reporter; assay: ATF4-Luc assay in HEK293T cells carrying the ATF4 luciferase reporter (in vitro model of VWMD); type: cell-based, human; conditions: Homo sapiens, HEK-293T, 1 μg/mL tunicamycin, 7 hours, luminescence (One Glo)
pEC50: −log10 of the molar value.
Some compounds, each annotated with its measured pEC50.
observationType: pEC50

* O=C(COc1ccc(Cl)c(F)c1)NC12CC(C(=O)NCc3cn4ccccc4n3)(C1)C2 | 5.70 to 6.00
* O=C(COc1ccc(Cl)c(F)c1)NC12CC(C(=O)NCc3ccc(C(F)(F)F)cn3)(C1)C2 | > 6.60
* CC(C)c1ccc(CNC(=O)C23CC(NC(=O)COc4ccc(Cl)c(F)c4)(C2)C3)cc1 | < 5.70
* O=C(COc1ccc(Cl)cc1)NC12CC(C(=O)NCCOc3ccc(Cl)cc3)(C1)C2 | > 6.60
* COc1cccc(CNC(=O)C23CC(NC(=O)COc4ccc(Cl)c(F)c4)(C2)C3)c1 | < 5.70
* CC(C)(C)c1ccc(CNC(=O)C23CC(NC(=O)COc4ccc(Cl)c(F)c4)(C2)C3)cc1 | < 5.70
* O=C(COc1ccc(Cl)c(F)c1)NC12CC(C(=O)NCc3cc(F)cc(C(F)(F)F)c3)(C1)C2 | < 5.70
* O=C(COc1ccc(Cl)c(F)c1)NC12CCC(C(=O)NCc3cccc(Cl)c3)(CC1)C(O)C2 (stereo not shown) | 6.30 to 6.60
* N#Cc1ccc(CNC(=O)C23CC(NC(=O)COc4ccc(Cl)c(F)c4)(C2)C3)cn1 | < 5.70
* O=C(COc1ccc(Cl)c(F)c1)NC12CCC(C(=O)NCc3ccc(C(F)(F)F)cn3)(CC1)[C@@H](O)C2 (single isomer, unassigned) | > 6.60
* O=C(COc1ccc(Cl)c(F)c1)NC12CC(C(=O)NCCn3cccn3)(C1)C2 | < 5.70
* Cc1occc1CNC(=O)C12CC(NC(=O)COc3ccc(Cl)c(F)c3)(C1)C2 | < 5.70
* Cc1ccc(CNC(=O)C23CC(NC(=O)COc4ccc(Cl)c(F)c4)(C2)C3)nc1 | 5.70 to 6.00
* CC(C)Cc1cc(CNC(=O)C23CC(NC(=O)COc4ccc(Cl)c(F)c4)(C2)C3)on1 | < 5.70
* O=C(COc1ccc(Cl)c(F)c1)NC12CC(C(=O)NCc3ccc(C(F)(F)F)o3)(C1)C2 | < 5.70
* Cc1ccnc(CNC(=O)C23CC(NC(=O)COc4ccc(Cl)c(F)c4)(C2)C3)c1 | < 5.70
* O=C(COc1ccc(Cl)c(F)c1)NC12CCC(C(=O)NCc3cccc(C(F)(F)F)c3)(CC1)C(O)C2 (stereo not shown) | > 6.60
* O=C(COc1ccc(Cl)c(F)c1)NC12CCC(C(=O)NCc3ccc(Cl)cn3)(CC1)C(O)C2 (stereo not shown) | > 6.60
* O=C(COc1ccc(Cl)c(F)c1)NC12CC(C(=O)NCc3cccc(OC(F)F)c3)(C1)C2 | < 5.70
* COc1cccc(CNC(=O)C23CC(NC(=O)COc4ccc(Cl)c(F)c4)(C2)C3)n1 | < 5.70
* COc1ccc(CNC(=O)C23CC(NC(=O)COc4ccc(Cl)c(F)c4)(C2)C3)cc1F | < 5.70
* O=C(COc1ccc(Cl)c(F)c1)NC12CCC(C(=O)NCc3cc(F)cc(C(F)(F)F)c3)(CC1)C(O)C2 (stereo not shown) | < 5.70
* O=C(COc1ccc(Cl)c(F)c1)NC12CCC(C(=O)NCc3ccc(C(F)(F)F)cc3)(CC1)C(O)C2 (stereo not shown) | > 6.60
* CN(C)c1ccc(CNC(=O)C23CCC(NC(=O)COc4ccc(Cl)c(F)c4)(CC2)CC3O)cc1 (stereo not shown) | > 6.60
* O=C(COc1ccc(Cl)c(F)c1)NC12CCC(C(=O)NCc3ccc(OC(F)F)cn3)(CC1)C(O)C2 (stereo not shown) | > 6.60
* O=C(COc1ccc(Cl)c(F)c1)NC12CC(C(=O)NCCc3cccnc3)(C1)C2 | < 5.70
* CCCc1cc(CNC(=O)C23CC(NC(=O)COc4ccc(Cl)c(F)c4)(C2)C3)on1 | < 5.70
* Cn1ccc(CNC(=O)C23CCC(NC(=O)COc4ccc(Cl)c(F)c4)(CC2)CC3O)n1 (stereo not shown) | < 5.70
* O=C(COc1ccc(Cl)cc1)NC12CC(C(=O)NCCOc3ccc(F)cc3)(C1)C2 | 6.30 to 6.60
* Cc1cnc(CNC(=O)C23CC(NC(=O)COc4ccc(Cl)c(F)c4)(C2)C3)o1 | < 5.70
* O=C(COc1ccc(Cl)c(F)c1)NC12CC(C(=O)NCc3ccc(OC(F)F)cn3)(C1)C2 | 6.30 to 6.60

====

tested on: ATF4 luciferase reporter; experiment: ATF4-Luc assay in HEK293T cells carrying the ATF4 luciferase reporter (in vitro model of VWMD); format: cell-based, human; conditions: Homo sapiens, HEK-293T, 1 μg/mL tunicamycin, 7 hours, luminescence (One Glo)
Some compounds, each annotated with its measured EC50.
observationType: EC50

• O=C(COc1ccc(Cl)cc1)NC12CC(C(=O)NCCOc3cccc(F)c3)(C1)C2 = 250 to 500 nM
• O=C(COc1ccc(Cl)c(F)c1)NC12CC(C(=O)NCc3ccc(SC(F)(F)F)cc3)(C1)C2 = > 2000 nM
• Cn1ccnc1CNC(=O)C12CC(NC(=O)COc3ccc(Cl)c(F)c3)(C1)C2 = > 2000 nM
• O=C(COc1ccc(Cl)c(F)c1)NC12CCC(C(=O)NCc3cncc(F)c3)(CC1)C(O)C2 (stereo not shown) = > 2000 nM
